test: Pharmacokinetic study of jervine in mice; type: in vivo; details: male, mouse; PO 10 mg/Kg, CD-1 mice, plasma
Measured attribute: Cmax (ng/mL)
Respond with the bare value in ng/mL.

Entry CC1=C2C(=O)[C@H]3[C@@H](CC=C4C[C@@H](O)CC[C@@]43C)[C@@H]2CC[C@]12O[C@@H]1C[C@H](C)CN[C@H]1[C@H]2C [jervine, Jervine] needs its Cmax filled in; supply it.
368

----------
test: Maximum tolerated dose of jervine on BALB/c nude mice; assay type: in vivo; details: mouse, in vivo; oral, 14 days, BALB/c nude mice
Measured attribute: MTD

Entry CC1=C2C(=O)[C@H]3[C@@H](CC=C4C[C@@H](O)CC[C@@]43C)[C@@H]2CC[C@]12O[C@@H]1C[C@H](C)CN[C@H]1[C@H]2C needs its MTD filled in; supply it.
> 80 mg/kg
